Protocol text: solvent given as SMILES
Protocol conditions: in ClC(Cl)Cl
Value kind: absorption maximum (nm)

INSERT INTO assay_data (compound, value_kind, reported_result) VALUES
  ('COc1ccc(C2CC(=O)Oc3c2c2nc4ccccc4nc2c2ccccc32)cc1 (centres undefined)', 'absorption maximum', 406),
  ('CC1(C)c2cc(C#N)ccc2-c2ccc(N3c4ccccc4Oc4ccccc43)cc21', 'absorption maximum', 389),
  ('COc1cc(C2CC(=O)Oc3c2c2nc4ccc(C)cc4nc2c2ccccc32)cc(OC)c1OC (centres undefined)', 'absorption maximum', 412),
  ('O=C1c2cccc3c(-n4c5ccccc5c5ccccc54)ccc(c23)C(=O)N1C1CCCCC1', 'absorption maximum', 402);
